target_system: T1, human PD-1-His (human, UniProt Q15116 25-170)
T1 construct: extracellular domain; not shown: His tag
T1 sequence (Q15116 25-170): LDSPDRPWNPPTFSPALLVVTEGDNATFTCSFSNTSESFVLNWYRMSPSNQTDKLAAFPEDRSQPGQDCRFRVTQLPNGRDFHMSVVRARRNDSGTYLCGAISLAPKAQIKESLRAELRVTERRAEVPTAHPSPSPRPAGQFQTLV
protocol_details: BLI (Octet ForteBio), antibody on ProA biosensor, PD-1-His in solution
Exercise: for every item that follows, state its recorded kon.

Example results:
Task item: What does the data say about its kon? Entry: humanized antibody 29C6-HZ2 (antibody, human IgG4 S228P, kappa, V domains shown) VH: QVQLVQSGVEVKKPGASVKVSCKTSGYTFTEYTIYWVRQAPGQGLEWIGGINPKNGATLYNQKFKVRATLTVDKSTTTAYMELKSLQFDDTAVYYCVRDYHGNSHDSMDYWGQGTTVTVSS VL: EIVLTQSPATLSLSPGERATLSCSASSSVSYMHWFQQKPGQAPRLLIYYTSNLASGVPARFSGSGSGTDYTLTISSLEPEDFAVYYCQQRSDYPPTFGGGTKVEIKR
Reply: 275000 M⁻¹ s⁻¹

Task item: What does the data say about its kon? Entry: humanized antibody 91D5-HZ1 (antibody, human IgG4 S228P, kappa, V domains shown) VH: EVQLVQSGAEVKKPGASVKVSCKASGYTFTDYYMNWVREAPGQGLEWMGEINPKYGDTTYAQKLQGRVTLTVDKSTSTAYMELSSLRSDDTAVYYCAKGIRLFDSWGQGTLVTVSS VL: DIQLTQSPSSLSASVGDRVTITCRPSGNVHNYFAWYQQKPGKSPKLLVYNAKTLAEGVPSRFSGSGSGTDYTLTISSLQPEDFATYYCHHYYTAPFTFGGGTKVEIKR
Reply: 281000 M⁻¹ s⁻¹

Task item: What does the data say about its kon? Entry: chimeric antibody 91D5-CH (antibody, human IgG4 S228P, kappa, V domains shown, Murine 91D5 variable regions fused to the IgG4 (S228P) heavy chain constant region and the human kappa constant region) VH: EVQLQQSGPELVKPGASVKISCRASGYTFTDYYMNWVKESHGKSLEWIGEINPKYGDTTYNQKFKDKATLTVDKSSSTASVELRSLTSEDSAVYYCAKGIRLFDSWGQGTTVTVSS VL: DIQLTQSPASLSASVGETVTITCRPSGNVHNYFAWYQQKQGKSPQLLVYNAKTLAEGVPSRFSGSGSGTQYSLKINSLQPEDFGTYYCHHYYTAPFTFGSGTKLEIKR
Reply: 324000 M⁻¹ s⁻¹

For the next question, use this binder.
Task item: What does the data say about its kon? Entry: chimeric antibody 29C6-CH (antibody, human IgG4 S228P, kappa, V domains shown, Murine 29C6 variable regions fused to the IgG4 (S228P) heavy chain constant region and the human kappa constant region) VH: QVQLEESGPELVKPGASVKISCKTSGYTFTEYTIYWVKQSHGKSLEWIGGINPKNGATLYNQKFKVKATLTVDKSSSTAYMELRSLTSEDSAVYYCVRDYHGNSHDSMDYWGQGTSVTVSS VL: QIVLTQSPAIMSASPGEKVTITCSASSSVSYMHWFRQKPGTSPKLWIYYTSNLASGVPAHFSGSGSGTSYSLTISRMEAEDAATYYCQQRSDYPPTFGGGTKLEIKR
Reply: 322000 M⁻¹ s⁻¹
